Target: Rap guanine nucleotide exchange factor 3 (Homo sapiens)
Test: Counterscreen qHTS for agonist of cAMP-regulated guanine nucleotide exchange factor 3 (EPAC1) (AID 1645889); further: potency means the concentration at half of the fitted maximal effect; nearly all actives have a fitted effect of over 40% in size
Conditions: EPAC1 Rap1B-BODIPY-GDP exchange, fluorescence; series mostly up to 154 µM
Results filed as inconclusive are left out. Activity calls are given as the source filed them. The call rests on the fitted dose curve; in most records, active means well fitted activation curve with a large enough effect; inconclusive means small, poorly fitted or top-dose-only effect, or another doubt; inactive means no such curve, though single readings can be large or run the other way.
Each entry below carries its reported Potency.
Recorded Endpoint: Potency

INSERT INTO assay_data (compound, readout_value) VALUES
  ('Cc1nnc(Sc2cc(NCCCO)c([N+](=O)[O-])c3nonc23)s1', '8.91 µM (active)'),
  ('CC(C)CCN1C(=O)c2cccc3c(N)ccc(c23)C1=O', '12.6 µM (active)'),
  ('Cn1cc(/C=C2\SC(=S)N(NC(=O)c3ccccc3Cl)C2=O)c2ccccc21', '63.1 µM (active)'),
  ('CN(C)c1ccc(/C=C2\SC(=S)N(Nc3ncc(C(F)(F)F)cc3Cl)C2=O)cc1', '17.8 µM (active)'),
  ('O=C1c2cccc3c(O)ccc(c23)C(=O)N1c1ccc(Cl)cc1', '39.8 µM (active)'),
  ('Cc1cc(/C=C2\SC(=S)N(C)C2=O)c(C)n1-c1ccccc1O', '89.1 µM (active)'),
  ('CCN(CC)C1=CC2=CC(=C(C#N)C#N)CCC2CC1 (configuration not stated)', '25.1 µM (active)'),
  ('CCOc1cc(/C=C2\CCCc3c2nc2ccccc2c3C(=O)O)ccc1OC', '100 µM (active)'),
  ('CCCCNc1ccc2c3c(cccc13)C(=O)N(CCCC)C2=O', '20 µM (active)'),
  ('CC(=NNC(=O)c1ccncc1)c1ccc2ccccc2c1O', '39.8 µM (active)'),
  ('CC1CCN(c2ccc3c(c2)S(=O)(=O)c2cccc(C(=O)NC4CCCCC4)c2C3=O)CC1', '50.1 µM (active)'),
  ('CN(C)c1ccc(/C=C(/C(=O)c2ccc(Cl)cc2Cl)n2cncn2)cc1', '70.8 µM (active)'),
  ('Cc1ccc(C)c(N2CCN(C(=O)CCCn3c(=O)c4cccn4c4cccnc43)CC2)c1', '0.0089 µM (active)'),
  ('CC1=NN(c2ccc(Br)cc2)C(=O)/C1=C/c1cccs1', '14.1 µM (active)'),
  ('CCCCn1c(=O)[nH]c2nc3cc(N)ccc3nc2c1=O', '12.6 µM (active)'),
  ('CC1=Nc2ccccc2/C1=C/c1sc(=N)n(-c2nccs2)c1O', '56.2 µM (active)'),
  ('Oc1[nH]c2ccccc2c1N=Nc1ccccc1F', '11.2 µM (active)'),
  ('Oc1ccc(NCc2ccc(OCc3ccccc3Cl)cc2)cc1', '56.2 µM (active)'),
  ('O=C(NCc1ccc(F)cc1)c1cccc2c1C(=O)c1ccc(N3CCOCC3)cc1S2(=O)=O', '56.2 µM (active)'),
  ('O=C(N=c1ccn(-c2nc3ccccc3nc2NS(=O)(=O)c2ccccc2)cc1)c1ccccc1Cl', '79.4 µM (active)'),
  ('O=C(NCCC1CCCCN1S(=O)(=O)c1ccc(Cl)cc1)C(=O)NCc1ccco1 (configuration not stated)', '89.1 µM (active)'),
  ('CSC1=NSC2=NC(=O)/C(=C/c3coc4ccccc4c3=O)C(=N)N12', '39.8 µM (active)');
